// data source = BindingDB's records for doi:10.1016/j.bmcl.2015.01.024

- assay-details: Agonist activity at human IP receptor in human platelets assessed as inhibition of ADP-induced platelet aggregation
reported-property: pIC50
Numbers only, as −log10 of the molar value.

{"compound": "O=C(O)COc1cccc2c1CC[C@@H](Cn1ncc(-c3cccc(F)c3F)c(-c3ccc(F)cc3)c1=O)C2", "pIC50": 7.21}

// for each compound in input: emit pIC50
1. O=C(O)COc1cccc2c1CCC(Cn1ncc(-c3cccc(F)c3F)c(-c3ccccc3)c1=O)C2 (centres undefined)
2. O=C(O)COc1cccc2c1CCC(Cn1ncc(-c3ccccc3)c(-c3ccccc3)c1=O)C2 (centres undefined)

stdout:
1. 7.06
2. 6.49

Briefly, pIC50 measured for COc1cccc(-c2cnn(CC3CCc4c(cccc4OCC(=O)O)C3)c(=O)c2-c2ccccc2)c1F (centres undefined) : 7.19
